Target: mouse TLR7 (Mus musculus)
Sequence (P58681 27-1050): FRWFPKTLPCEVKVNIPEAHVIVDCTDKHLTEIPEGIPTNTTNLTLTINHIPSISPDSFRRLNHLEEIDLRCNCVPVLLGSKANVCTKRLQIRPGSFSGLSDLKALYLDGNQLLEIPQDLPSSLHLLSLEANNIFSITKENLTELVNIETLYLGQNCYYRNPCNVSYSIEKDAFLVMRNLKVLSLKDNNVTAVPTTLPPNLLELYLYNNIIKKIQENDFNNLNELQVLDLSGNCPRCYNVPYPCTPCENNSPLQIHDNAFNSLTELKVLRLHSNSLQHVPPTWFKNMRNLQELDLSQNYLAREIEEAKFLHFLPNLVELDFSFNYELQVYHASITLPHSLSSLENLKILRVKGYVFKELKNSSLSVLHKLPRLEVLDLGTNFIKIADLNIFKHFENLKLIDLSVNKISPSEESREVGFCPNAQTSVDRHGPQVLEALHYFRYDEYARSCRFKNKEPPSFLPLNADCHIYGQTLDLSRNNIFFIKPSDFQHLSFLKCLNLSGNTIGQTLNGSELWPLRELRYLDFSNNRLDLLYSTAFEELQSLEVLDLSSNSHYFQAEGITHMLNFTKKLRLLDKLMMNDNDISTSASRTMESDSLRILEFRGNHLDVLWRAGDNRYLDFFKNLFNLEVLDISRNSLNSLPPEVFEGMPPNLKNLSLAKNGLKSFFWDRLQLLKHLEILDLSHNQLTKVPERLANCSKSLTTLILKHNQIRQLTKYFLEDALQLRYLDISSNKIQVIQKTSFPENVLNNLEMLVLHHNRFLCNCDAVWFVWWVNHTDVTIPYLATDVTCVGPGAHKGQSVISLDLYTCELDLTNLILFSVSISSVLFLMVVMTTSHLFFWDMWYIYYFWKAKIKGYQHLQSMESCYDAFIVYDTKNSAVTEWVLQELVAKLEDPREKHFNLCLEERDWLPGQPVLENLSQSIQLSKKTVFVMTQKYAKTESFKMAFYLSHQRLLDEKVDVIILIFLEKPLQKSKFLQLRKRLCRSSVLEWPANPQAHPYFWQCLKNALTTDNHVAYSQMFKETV
Assay: Short-term in vivo (STIV) assay: oral dosing, R848 s.c., plasma IL-6
Set-up: female BALB/c mice (Jackson Labs, Bar Harbor, Me.) were dosed by oral gavage; tissue Jackson Labs; host or cells: living female BALB/c mice; plasma IL-6 after s.c. R848
Settings: 24 h; 100 mg/kg
measure: % Suppression vs. Vehicle (%)
Provide the reading as a plain figure in %.

CC1CN(c2ccc(C#N)c3ncccc23)CC(C(=O)NC2CCOCC2)O1 (stereo not shown) on mouse TLR7 (Mus musculus) gives % Suppression vs. Vehicle = 89

Reported mouse TLR7 (Mus musculus) % Suppression vs. Vehicle for item CCNC(=O)C1CN(c2ccc(C#N)c3ncccc23)CC(C)O1 (stereo not shown) was 71

The compound CC1CN(c2ccc(C#N)c3ncccc23)CC(C(=O)N2CC3(CCNC3)C2)O1 (stereo not shown) , tested on mouse TLR7 (Mus musculus), showed % Suppression vs. Vehicle of 0

Simply: CC(=O)NC1CCN(CC2CN(c3ccc(C#N)c4ncccc34)CC(C)O2)CC1 (stereo not shown) , mouse TLR7 (Mus musculus), % Suppression vs. Vehicle = 0
